Taken from paper PMC12136788.

Biological target: T1, UNK ZnF1-6 (called full-length) (human, UniProt Q9C0B0 30-357)
T1 sequence: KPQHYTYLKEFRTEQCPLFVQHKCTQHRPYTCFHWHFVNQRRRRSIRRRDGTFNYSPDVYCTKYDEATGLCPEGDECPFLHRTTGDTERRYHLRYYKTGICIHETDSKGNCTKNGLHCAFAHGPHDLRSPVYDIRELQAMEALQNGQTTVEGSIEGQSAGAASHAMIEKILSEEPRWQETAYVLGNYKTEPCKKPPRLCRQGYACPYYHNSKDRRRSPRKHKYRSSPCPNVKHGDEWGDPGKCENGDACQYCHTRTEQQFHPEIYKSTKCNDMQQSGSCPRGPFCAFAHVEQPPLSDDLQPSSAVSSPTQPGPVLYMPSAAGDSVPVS
Test: nsRBNS (natural sequence RNA bind-n-seq); RBNS binding buffer (assumed for nsRBNS): 25 mM Tris pH 7.5, 150 mM KCl, 3 mM MgCl2, 0.01% Triton X-100, 500 ug/ml BSA, 20 U/ml SUPERase-In, 4 C; UNK is unkempt and MSI1 is Musashi-1; names of the RNAs are library labels; protein concentration not given here; high values mean tight binding
Over roughly 5,800 sequences, “enrichment r” has its median near 0.68; the highest 2% begin near 11. Shown is part of a subset that was picked to be rich in the highest values.
measuredEndpoint: binding signal

stdin: Field request: binding signal | item: chr10:98383567:98383797:-|three_prime_utr|ENSG00000119943|control|control|control (ssRNA) RNA: GGGAGUUCUACAGUCCGACGAUCCCACCCCUGAAUUCCAAGUGCUCCAUUGGAUCAGCUUCCCAGGAAGUUCAGCUUCGGGUUAGUACAUAAGGCCACCACAAUGCUCAAGAAAUUAUUUUAGAAAAAACGUACGAGUUACAUCAACAGAGGAUUGAGCAUCA
stdout: 2.25 enrichment R

stdin: Field entry: chr9:91409354:91409467:-|CDS|ENSG00000165030|unk|total|mutant (ssRNA) RNA: GGGAGUUCUACAGUCCGACGAUCAAUGAAAGACAGUGGCUACAAAGUUUCUGACCCAGAGAACUUGUAUUUGAAGCAGGGGACCGCAAACUUAUCUGCAGAGGUUGUCUCACUCAAGAGACUUACCGCCACACAACCAAUCUCCAACAGAGGAUUGAGCAUCA
stdout: 0.615 enrichment R
